- measuredTarget: hHsp70-CSSAA (hHsp70 C267S/C306S/C574A/C603A) (human, UniProt P0DMV8 1-641, C267S | C306S | C574A | C603A)
- Sequence (P0DMV8 whole entry C267S/C306S/C574A/C603A): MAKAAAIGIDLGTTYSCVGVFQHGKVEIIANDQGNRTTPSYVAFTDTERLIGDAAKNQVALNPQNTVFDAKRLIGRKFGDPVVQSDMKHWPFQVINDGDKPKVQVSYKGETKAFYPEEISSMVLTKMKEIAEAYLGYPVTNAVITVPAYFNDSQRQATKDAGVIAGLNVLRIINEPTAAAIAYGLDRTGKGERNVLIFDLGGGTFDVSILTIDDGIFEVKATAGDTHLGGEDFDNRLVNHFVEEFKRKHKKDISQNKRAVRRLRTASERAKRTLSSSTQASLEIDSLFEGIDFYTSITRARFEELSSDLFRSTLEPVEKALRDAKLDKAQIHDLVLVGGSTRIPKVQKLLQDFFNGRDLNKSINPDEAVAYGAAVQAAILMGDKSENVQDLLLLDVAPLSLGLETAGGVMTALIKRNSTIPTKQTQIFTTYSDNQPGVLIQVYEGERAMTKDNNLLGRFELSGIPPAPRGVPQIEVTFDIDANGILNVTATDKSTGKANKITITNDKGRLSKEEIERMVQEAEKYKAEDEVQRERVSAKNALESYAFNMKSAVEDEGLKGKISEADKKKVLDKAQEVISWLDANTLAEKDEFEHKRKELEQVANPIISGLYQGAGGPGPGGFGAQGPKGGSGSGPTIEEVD
- protocolDetails: fluorescence polarisation; steady state; 20 nM FAR with increasing hHsp70 or mutant; apo (no nucleotide); Buffer B; RT, 60 min; single site binding model
- measurementContext: both partners purified
Ends that are not written are not given here. * marks the point of attachment. FITC = O=C1OC2(c3ccc(O)cc3Oc3cc(O)ccc32)c2ccc(NC(=S)*)cc21
readoutType: pKd
In plain terms, pKd is the concentration in mol/L turned into minus its base-10 logarithm.

*Q* Param item = {FITC}-ALLLSAPRR (fluorescently labeled peptide substrate) [FITC-labeled ALLLSAPRR (FAR) peptide] ; retrieve measured pKd.
*A* 5.92
